# literature pull: Collagenase 3 (Homo sapiens) IC50
measurement-label: IC50

smiles-record: COc1cc2nc(C(=O)NCc3ccc4c(c3)NC(=O)CO4)[nH]c(=O)c2cc1OC
measurement-label: IC50
observed-measurement: 0.1 to 20 µM
//
smiles-record: O=C(NO)[C@H]1CN(C(=O)CN2CCOCC2)CCN1S(=O)(=O)c1cc(F)c(Oc2ccc(Cl)cc2)c(F)c1
measurement-label: IC50
observed-measurement: < 0.05 µM
//
smiles-record: CC[C@]1(C(=O)NO)CCC[C@H]1NS(=O)(=O)c1ccc(OCc2cc(C)nc3ccccc23)cc1
measurement-label: IC50
observed-measurement: > 10 µM
//
smiles-record: Cc1cc(CNC(=O)c2nc3sc4c(c3c(=O)[nH]2)CCS(=O)(=O)C4)ccc1F
measurement-label: IC50
observed-measurement: 0.1 to 20 µM

###

pIC50: −log10 of the molar value.
# literature pull: Collagenase 3 (Homo sapiens, UniProt P45452) pIC50
measurement-label: pIC50

compound: Cc1cc(COc2ccc(S(=O)(=O)N[C@@H]3CN(C=O)CCC3C(=O)NO)cc2)c2ccccc2n1 (mixture of isomers)
measurement-label: pIC50
observed-measurement: < 4.78
--
compound: O=C(NCc1ccc2c(c1)OC(F)(F)O2)c1nc2ccccc2c(=O)[nH]1
measurement-label: pIC50
observed-measurement: 4.70 to 7.00
--
compound: O=C(NCc1cccnc1)c1nc2sc3c(c2c(=O)[nH]1)CCC3
measurement-label: pIC50
observed-measurement: > 7.00
--
compound: Cc1cccn(CC2(c3cccc(-c4cccnc4)c3)NC(=O)NC2=O)c1=O (centres unmarked)
measurement-label: pIC50
observed-measurement: < 4.00
--
compound: Cc1cc(COc2ccc(S(=O)(=O)N[C@@H]3CCOCC3C(=O)NO)cc2)c2ccccc2n1 (stereo in doubt)
measurement-label: pIC50
observed-measurement: < 4.78

###

# literature pull: Collagenase 3 (Homo sapiens, UniProt P45452) IC50
measurement-label: IC50

smiles-record: O=C1COc2ccc(CNC(=O)c3nc4ccc(F)cc4c(=O)[nH]3)c(F)c2N1
observed-measurement: 100 to 20000 nM

smiles-record: Cc1sc2nc(C(=O)NCc3cnc4c(c3)NC(=O)CO4)[nH]c(=O)c2c1C
observed-measurement: < 100 nM

smiles-record: Cn1ncc2c(=O)[nH]c(C(=O)NCc3ccc4c(c3)NC(=O)CO4)nc21
observed-measurement: < 100 nM

smiles-record: N#Cc1cc(C(=O)NCc2ccc3c(c2)NC(=O)CO3)nc2ncnn12
observed-measurement: 201 to 20000 nM

###

# literature pull: Collagenase 3 (Homo sapiens) IC50
measurement-label: IC50

compound: CCCCCCC(=O)N1CCN(S(=O)(=O)c2cc(F)c(Oc3ccc(Cl)cc3)c(F)c2)[C@@H](C(=O)NO)C1
measurement-label: IC50
observed-measurement: < 0.05 µM

compound: Cc1cccc(CNC(=O)c2nc3sc4c(c3c(=O)[nH]2)CCC4)c1
measurement-label: IC50
observed-measurement: 0.1 to 20 µM

compound: O=C1COc2ccc(CNC(=O)c3nc4ccc(CNC(=O)C56C7C8C5C5C6C7C85C(=O)O)cc4c(=O)[nH]3)cc2N1 (stereo not drawn)
measurement-label: IC50
observed-measurement: < 0.1 µM

compound: Cc1sc2nc(C(=O)NCc3ccc4c(c3)NC(=NC#N)CO4)[nH]c(=O)c2c1C
measurement-label: IC50
observed-measurement: < 0.1 µM

compound: COC(=O)c1ccc(CNC(=O)C2CCc3sc4nc(C(=O)NCc5ccc6c(c5)NC(=O)CO6)[nH]c(=O)c4c32)cc1 (stereo not drawn)
measurement-label: IC50
observed-measurement: < 0.1 µM

compound: O=C(NCc1csc2ccccc12)c1nc2sc3c(c2c(=O)[nH]1)CCC3
measurement-label: IC50
observed-measurement: 0.1 to 20 µM
